I'd appreciate it if you could supply pIC50 values for the items below.
TARGET_OR_SYSTEM: TEAD4(217-434) (Homo sapiens (Human), UniProt Q15561)
Sequence (Q15561 217-434): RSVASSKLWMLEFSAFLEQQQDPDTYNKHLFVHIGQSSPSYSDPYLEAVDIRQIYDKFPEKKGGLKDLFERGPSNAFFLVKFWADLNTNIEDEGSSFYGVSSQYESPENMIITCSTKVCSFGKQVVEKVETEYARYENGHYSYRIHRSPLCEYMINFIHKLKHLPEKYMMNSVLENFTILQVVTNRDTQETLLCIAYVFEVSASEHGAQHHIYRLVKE
Quick note: pIC50 values are minus log10 of concentrations in mol/L.

Given the compound C=CC(=O)N1C[C@@H](CO)[C@H](Nc2ncc(-c3ccc(C(F)(F)F)cc3)c3ncccc23)C1 [Example 24] , what is its reported pIC50? 7.64

Given the compound C=CC(=O)N1C[C@H](F)[C@H](Nc2ncc(-c3ccc(C(F)(F)F)cc3)c3ncccc23)C1 [Example 44] , what is its reported pIC50? 7.80

Given the compound C=CS(=O)(=O)N1CC[C@H](Nc2nnc(-c3ccc(C(F)(F)F)cc3)c3ccccc23)C1 [Example 21] , what is its reported pIC50? 7.38

Given the compound C=CC(=O)N1C[C@H](Nc2nnc(-c3ccc(C(F)(F)F)cc3)c3ccccc23)[C@@H](C(N)=O)C1 (single isomer, unassigned; enantiomer 1) [Example 31] , what is its reported pIC50? 7.14

Given the compound C=CC(=O)N1C[C@@H](CO)[C@H](Nc2nnc(-c3ccc(C(F)(F)F)cc3)c3ncccc23)C1 [Example 25] , what is its reported pIC50? 7.24

Given the compound C=CC(=O)N1C[C@@H](F)[C@H](Nc2nnc(-c3ccc(C(F)(F)F)cc3)c3ccccc23)C1 [Example 11] , what is its reported pIC50? 7.48

Given the compound C=CC(=O)N1C[C@H](O)[C@H](Nc2ncc(-c3ccc(C(F)(F)F)cc3)c3ncccc23)C1 [Example 34] , what is its reported pIC50? 7.77

Given the compound C=CC(=O)N1C[C@@H](CO)[C@H](Nc2nnc(-c3ccc(C(F)(F)F)cc3)c3ccccc23)C1 [Example 23] , what is its reported pIC50? 7.38

Given the compound C=CC(=O)N1C[C@H](O)[C@H](Nc2nnc(-c3ccc(C(F)(F)F)cc3)c3ccccc23)C1 [Example 12] , what is its reported pIC50? 7.28
